Could you please report measured pKd for the items listed next?
# assay-target: T1, PUF4 RNA-binding domain (Saccharomyces cerevisiae, UniProt P25339 537-888)
# T1 sequence: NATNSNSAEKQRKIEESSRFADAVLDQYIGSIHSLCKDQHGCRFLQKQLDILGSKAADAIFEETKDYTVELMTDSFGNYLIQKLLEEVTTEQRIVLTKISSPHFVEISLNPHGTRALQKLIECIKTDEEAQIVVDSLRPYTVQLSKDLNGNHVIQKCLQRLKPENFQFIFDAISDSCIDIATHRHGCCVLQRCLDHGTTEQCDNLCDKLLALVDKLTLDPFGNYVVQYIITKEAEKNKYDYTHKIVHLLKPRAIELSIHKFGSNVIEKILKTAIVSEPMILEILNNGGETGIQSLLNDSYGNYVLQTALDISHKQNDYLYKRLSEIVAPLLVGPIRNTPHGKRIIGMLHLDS
# test-description: Mg; RNA-MaP; 20 mM Na-HEPES pH 7.4, 30 mM KOAc, 0.75 mM MgCl2, 0.1% Tween-20, 5% glycerol, 0.1 mg/mL BSA, 2 mM DTT; 25 C; 0.0125-409.6 nM protein
# setup-conditions: tags: N-His6-TEV cleaved; C-SNAP kept, Cy3B-labelled; label: tethered on chip by stalled RNA polymerase
Please note pKd is a logarithmic value: minus log10 of concentration in mol/L. Answer with that number alone.

Could you tell me which pKd is on file for Id_ii_S2_P3E.3_K3.2_C3.2_[C-2G]_H3.2_A3.1_F3.1_T3.2_[A10T] (ssRNA) RNA: UUUGAUUAAUAUGAUAUCGUUCUUUCUGUUAUAUAUAUUUUCUUUCUCGAUAUCAUAUUAAUCUUU ?
8.04

Now this one: Ic_S2_P4E.1_K4.1_C4.1_H4.1_A4.1_[T5A]_[T7C]_F4.1_[A9C]_T4.1 (ssRNA) RNA: UUUGAUUAAUAUGAUAUCGUUCUUUCUUGUAAACUCUUCUUUCUCGAUAUCAUAUUAAUCUUU
7.58

Now this one: Ib_S2_P3E.1_K3.1_C3.1_H3.1_A3.1_[A6T]_F3.1_[A8G]_T3.1 (ssRNA) RNA: UUUGAUUAAUAUGAUAUCGUUCUUUCUUGUAUUUGUUCUUUCUCGAUAUCAUAUUAAUCUUU
7.42

Now this one: Ie_S2_P5E.1_K5.1_C5.1_H5.1_[+2TCTC]_A5.1_F5.1_T5.1 (ssRNA) RNA: UUUGAUUAAUAUGAUAUCGUUCUUUCUUGUCUCUAUUAUUAUUCUUUCUCGAUAUCAUAUUAAUCUUU
7.46

Now this one: Ic_S2_P5E.1_K5.1_C5.1_H5.1_A5.1_[T5A]_[T6C]_F5.1_[T8C]_[T9C]_T5.1 (ssRNA) RNA: UUUGAUUAAUAUGAUAUCGUUCUUUCUUGUAACACCAUUCUUUCUCGAUAUCAUAUUAAUCUUU
6.56

Now this one: UCUCUUAUACACUAUACGUCUCUU (ssRNA) [Id_ii_S1_P3E.4_K3.3_C3.2_[C-2A]_H3.3_A3.1_F3.1_T3.2_[T9C]_[A10G]]
7.13

Now this one: UCUCUUUGUAUGCCAUUCUCUU (ssRNA) [Ic_S1_P5E.1_K5.1_C5.1_H5.1_A5.1_[T6G]_[A7C]_F5.1_[T8C]_[T9A]_[A10T]_T5.1]
7.00

Now this one: UCUCUUGAUAUAUAUAAUUCUCUU (ssRNA) [Id_ii_S1_P3E.3_K3.2_C3.2_[C-2G]_[T-1A]_H3.2_A3.1_F3.1_T3.2_[T9A]_[A10T]]
5.98

Now this one: Ic_S2_P5E.1_K5.1_C5.1_H5.1_A5.1_[T5C]_[A7G]_F5.1_[T9G]_[A10T]_T5.1 (ssRNA) RNA: UUUGAUUAAUAUGAUAUCGUUCUUUCUUGUACUGUGUUUCUUUCUCGAUAUCAUAUUAAUCUUU
7.29

Now this one: Ie_S4_P3E.2_K3.1_C3.2_[+-1TC]_H3.1_A3.1_F3.1_T3.2 (ssRNA) RNA: UUUGACAACUGAUCGUUCUUUCUCUUCUGUAUAUAUAUUCUUUCUCGAUCAGUUGUCUUU
9.11

Now this one: UCUCUUUGUACGUGUUCUCUU (ssRNA) [Ic_S1_P4E.1_K4.1_C4.1_H4.1_A4.1_[T5C]_[A6G]_F4.1_[T8G]_[A9T]_T4.1]
6.96

Now this one: UCUCUUUGUACAUGGUCUCUU (ssRNA) [Ic_S1_P4E.1_K4.1_C4.1_H4.1_A4.1_[T5C]_F4.1_[T8G]_[A9G]_T4.1]
7.22

Now this one: UCUCUUUGUAUAUUUUAUCUCUU (ssRNA) [Ie_S1_P4E.1_K4.1_C4.1_H4.1_A4.1_[+7TT]_F4.1_T4.1]
8.34

Now this one: Ic_S4_P4E.1_K4.1_C4.1_H4.1_A4.1_[T5C]_[A6T]_[T7A]_F4.1_[A9C]_T4.1 (ssRNA) RNA: UUUGACAACUGAUCGUUCUUUCUUGUACUAUCUUCUUUCUCGAUCAGUUGUCUUU
7.80

Now this one: UCUCUUAAUAUAUAUACAUCUCUU (ssRNA) [Id_ii_S1_P3E.3_K3.2_C3.2_[C-2A]_[T-1A]_H3.2_A3.1_F3.1_T3.2_[T9C]]
6.05

Now this one: UCUCUUUGUAACAUCUCUCUU (ssRNA) [Ic_S1_P4E.1_K4.1_C4.1_H4.1_A4.1_[T5A]_[A6C]_[T7A]_F4.1_[A9C]_T4.1]
7.61

Now this one: UCUCUUCGCUAUAUAUAUAUCUCUU (ssRNA) [Id_i_S1_P3E.6_K3.2_C3.3_[T-3C]_[C-2G]_[T-1C]_H3.2_A3.1_F3.1_T3.2]
6.29

Now this one: UCUCUUGUUGUAUAUAGUUCUCUU (ssRNA) [Id_ii_S1_P3E.2_K3.1_C3.2_[C-2G]_H3.1_A3.1_F3.1_T3.2_[T9G]_[A10T]]
8.34

Now this one: Ic_S4_P4E.1_K4.1_C4.1_H4.1_A4.1_[T5G]_[A6T]_[T7C]_F4.1_[T8C]_[A9G]_T4.1 (ssRNA) RNA: UUUGACAACUGAUCGUUCUUUCUUGUAGUCCGUUCUUUCUCGAUCAGUUGUCUUU
6.15

Now this one: Ic_S2_P4E.1_K4.1_C4.1_H4.1_A4.1_[A6C]_[T7C]_F4.1_[T8G]_[A9T]_T4.1 (ssRNA) RNA: UUUGAUUAAUAUGAUAUCGUUCUUUCUUGUAUCCGUUUCUUUCUCGAUAUCAUAUUAAUCUUU
6.83

Now this one: UCUCUUAUUGUAUAUUAUUUCUCUU (ssRNA) [Id_ii_S1_P4E.2_K4.1_C4.2_[C-2A]_H4.1_A4.1_F4.1_T4.2_[G10T]]
9.34

Now this one: UCUCUUGCUAUAUUAUUAAUUCUCUU (ssRNA) [Id_ii_S1_P5E.3_K5.2_C5.2_[C-2G]_[T-1C]_H5.2_A5.1_F5.1_T5.2_[T11A]_[A12T]]
6.46

Now this one: UCUCUUUGUACCCCUCUCUU (ssRNA) [Ic_S1_P3E.1_K3.1_C3.1_H3.1_A3.1_[T5C]_[A6C]_F3.1_[T7C]_[A8C]_T3.1]
6.02

Data credit: paper PMC9352680
